- Assay Details: Hemolytic activity in mouse red blood cells assessed as hemolysis incubated for 1 hr by TECAN SPARK microplate reader analysis
- Assay type: toxicity, cell-based, Erythrocyte
- Measurement Context: red blood cells (erythrocytes)
Endpoint Label: HC50 at 1 h (µg/mL)

1) CCCCCCN1C(=O)[C@H](CCCCN)N(Cc2ccc(CCc3ccc(CN4C(=O)N(CCCCCC)C(=O)[C@@H]4CCCCN)cc3)cc2)C1=O = 20.9
2) CCCCCCN1C(=O)[C@H](CCCCNC(=N)N)N(Cc2ccc3cc(CN4C(=O)N(CCCCCC)C(=O)[C@@H]4CCCCNC(=N)N)ccc3c2)C1=O = 117
3) CCCCCCN1C(=O)[C@H](CCCCN)N(Cc2ccc(Oc3ccc(CN4C(=O)N(CCCCCC)C(=O)[C@@H]4CCCCN)cc3)cc2)C1=O = 69
